compounds and their reported IC50
- Target Entity: Estrogen receptor beta (Homo sapiens, UniProt Q92731)
- Sequence (Q92731 whole entry): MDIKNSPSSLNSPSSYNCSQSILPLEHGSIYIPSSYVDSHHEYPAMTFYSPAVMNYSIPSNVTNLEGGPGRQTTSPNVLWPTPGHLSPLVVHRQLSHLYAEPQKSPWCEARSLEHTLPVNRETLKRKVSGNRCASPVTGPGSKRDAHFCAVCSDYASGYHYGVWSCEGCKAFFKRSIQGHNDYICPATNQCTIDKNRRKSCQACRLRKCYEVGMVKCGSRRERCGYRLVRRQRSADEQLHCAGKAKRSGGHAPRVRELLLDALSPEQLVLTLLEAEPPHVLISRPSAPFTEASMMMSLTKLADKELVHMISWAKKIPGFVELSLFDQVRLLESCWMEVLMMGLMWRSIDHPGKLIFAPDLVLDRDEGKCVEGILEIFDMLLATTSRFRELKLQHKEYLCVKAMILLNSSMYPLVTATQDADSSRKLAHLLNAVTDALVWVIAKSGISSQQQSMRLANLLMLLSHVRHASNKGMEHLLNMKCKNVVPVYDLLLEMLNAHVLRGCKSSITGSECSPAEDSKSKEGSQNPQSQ
Recorded Endpoint: IC50

{"columns": ["Structure Notation", "Meas Value"],
 "data": [
  ["Oc1ccc2c(c1)sc1c3cc(O)ccc3n(Cc3ccc(OCCN4CCOCC4)cc3)c21", "21.4 nM"],
  ["CN(C)CCOc1ccc(Cn2c3ccc(O)cc3c3sc4cc(O)ccc4c32)cc1", "31 nM"],
  ["Oc1ccc2c(c1)sc1c3cc(O)ccc3n(Cc3ccc(OCCN4CCCCCC4)cc3)c21", "7.26 nM"],
  ["Oc1ccc2c(c1)sc1c3cc(O)ccc3n(Cc3ccc(OCCN4CCCC4)cc3)c21", "20.2 nM"],
  ["Oc1ccc2c(c1)sc1c3ccccc3n(Cc3ccc(OCCN4CCCC4)cc3)c21", "53.9 nM"]
]}
